Assay: Confirmation screen for delayed death inhibitors of the malarial parasite plastid, 48 hour incubation; also: nearly all actives have a fitted effect of over 65% in size
Conditions: P. falciparum-infected erythrocytes, luciferase growth; series mostly up to 28.7 µM
Source text: The goal of this screen is to discover new antimalarial compounds that act by inhibiting the development of the apicoplast in the malarial parasite Plasmodium falciparum. The biochemical processes that make this organelle essential for erythrocytic stage parasites are not well understood. […] Growth inhibition is detected by a decrease in luciferase activity. […]
The campaign covered roughly 2,300 compounds. About 1,200 (52%) were called active. About 34% were inconclusive and are not listed. Calls follow the shape of the dose curve; as a rule, active = well fitted inhibition curve with a large enough effect; inconclusive = small, poorly fitted or top-dose-only effect, or effect the other way; inactive = no such curve, though single readings can be large or run the other way. The set was probably picked from earlier hits. The list shows a part of the results.
Entry note: the call must match one of TRUE (active), FALSE (inactive)

compound: CCOC(=O)c1ccc(N2N=C(C)/C(=C/C=C/c3ccco3)C2=O)cc1
label class: TRUE

compound: CCOc1ccc2c(c1)C(c1ccccc1)=NNC(c1ccccc1)=N2
label class: TRUE

compound: COc1ccccc1CN1CCCC(CN(CCN(C)C)C(=O)c2ccc(C)cc2)C1 (stereo not drawn)
label class: TRUE

compound: Cc1cc(OCC(=O)N[C@@H](CSCc2ccccc2)C(=O)O)c2c(C)c(C)c(=O)oc2c1
label class: TRUE

compound: N#Cc1cccc(NC(=O)Cn2c3[n+](c4ccc(C(F)(F)F)cc42)CCCCC3)c1
label class: TRUE

compound: Cc1noc(C)c1C(=O)Nc1nc(-c2ccc(F)cc2)cs1
label class: FALSE

compound: NC(=O)COc1ccc(NC(=O)CC23CC4CC(CC(C4)C2)C3)cc1
label class: TRUE

Here is the next item to consider.
Recorded call for CCOC(=O)c1ccc(Nc2nc(=O)c3cccnc3s2)cc1 ?
FALSE

* * *

assay: Confirmation screen for delayed death inhibitors of the malarial parasite plastid, 48 hour incubation; also: nearly all actives have a fitted effect of over 65% in size; details: P. falciparum-infected erythrocytes, luciferase growth; series mostly up to 28.7 µM
About 1,200 (52%) of roughly 2,300 compounds were called active. Not shown: some 34% with an inconclusive outcome. The call rests on the fitted dose curve; in most records, active means well fitted inhibition curve with a large enough effect; inconclusive means small, poorly fitted or top-dose-only effect, or effect the other way; inactive means no such curve, though single readings can be large or run the other way. The set was probably picked from earlier hits. The list shows a part of the results.
Entry note: the call must match one of active, inactive

Previously resolved entries follow.
molecule: O=C(CCN1C(=O)/C(=C/c2ccccc2)SC1=S)NCCc1ccc(O)cc1
label class: inactive
--
molecule: Cc1nn(C(C)C(=O)NCCC2=CCCCC2)c(=O)c2nn(-c3ccccc3)c(C)c12 (stereo unspecified)
label class: active
--
molecule: O=C(NC(Cc1c[nH]c2ccccc12)C(=O)Nc1ccc(F)cc1)c1cccs1 (stereo unspecified)
label class: active
--
molecule: O=C(Nc1ccc(N2CCN(C(=O)c3ccco3)CC2)cc1)c1ccc(F)cc1
label class: active

Recorded call for O=C1CSC(c2cccnc2)N1CCc1ccccn1 (stereo unspecified) ?
inactive

Same for CSc1ccc(CNC(=O)C(C)n2nc(C)c3c(C)n(-c4ccccc4)nc3c2=O)cc1 (stereo unspecified)
active

Same for Cc1ccc(-c2nnn(CC(=O)Nc3ccc4nn(-c5ccccc5)nc4c3)n2)o1
inactive

Same for CC(=O)c1c(C)[nH]c(C(=O)COC(=O)COc2ccccc2F)c1C
inactive

Same for CCOc1ccccc1C(=O)NCC(=O)NCCc1ccc(S(N)(=O)=O)cc1
inactive

Same for O=C(Nc1ccc(N2CCN(C(=O)c3cccs3)CC2)cc1)c1ccc([N+](=O)[O-])o1
active

Same for O=[N+]([O-])/C=C\c1ccc(N2CCCC2)c(F)c1
inactive

Same for Cn1cc([N+](=O)[O-])c(C(=O)Nc2ccn(C34CC5CC(CC(C5)C3)C4)n2)n1
inactive

* * *

assay: Confirmation screen for delayed death inhibitors of the malarial parasite plastid, 48 hour incubation; also: nearly all actives have a fitted effect of over 65% in size; conditions: P. falciparum-infected erythrocytes, luciferase growth; series mostly up to 28.7 µM
Out of some 2,300 compounds screened, about 1,200 (52%) were called active. Another 34% or so got no clear call; they are omitted. The call rests on the fitted dose curve; in most records, active means well fitted inhibition curve with a large enough effect; inconclusive means small, poorly fitted or top-dose-only effect, or effect the other way; inactive means no such curve, though single readings can be large or run the other way. So high a share suggests a set chosen from earlier hits. The list shows a part of the results.
Entry note: the call must match one of active, inactive

Previously resolved entries follow.
compound: Oc1cccc2ccc(/C=C/c3ccccc3Br)nc12
label class: active
--
compound: N=C(N)c1ccc(/C=C/c2ccc(C(=N)N)cc2O)cc1
label class: active
--
compound: Cc1cc(Sc2nnc(/N=C/N(C)C)s2)c2ccccc2n1
label class: active
--
compound: CCOc1ccc(-n2c(N)c(-c3nc4ccccc4n3C)c3nc4ccccc4nc32)cc1
label class: active
--
compound: COc1ccc(Cl)cc1/C=C/c1ccc2cccc(O)c2n1
label class: active

Recorded call for O=C(CCl)Nc1ccc2c(c1)OCO2 ?
active

Same for CCOc1cc(/C=C/C(=O)Nc2ccc(C(=O)NCCN(CC)CC)cc2)ccc1OCC(C)C
active

* * *

test: Confirmation screen for delayed death inhibitors of the malarial parasite plastid, 48 hour incubation; also: nearly all actives have a fitted effect of over 65% in size; also: potency is read from the fitted curve at half-maximal effect; conditions: P. falciparum-infected erythrocytes, luciferase growth; series mostly up to 28.7 µM
In all, about 2,300 compounds went through this assay and about 1,200 (52%) were called active. Inconclusive results (about 34%) are left out. The set was probably picked from earlier hits. This is one part of the list.
Measured Potency, listed per entry.

compound: COc1ccccc1N1CCN(C(=O)c2ccc3[nH]c4c(c3c2)CCCC4)CC1
Potency: 12.6 µM (active)

Potency lookup needed for O=C(/C=C/c1ccc(Cl)c(Cl)c1)NCCCn1ccnc1 , thanks.
15.8 µM (active)

* * *

assay: Confirmation screen for delayed death inhibitors of the malarial parasite plastid, 48 hour incubation; also: nearly all actives have a fitted effect of over 65% in size; settings: P. falciparum-infected erythrocytes, luciferase growth; series mostly up to 28.7 µM
In all, about 2,300 compounds went through this assay and about 1,200 (52%) were called active. Another 34% or so got no clear call; they are omitted. The call rests on the fitted dose curve; in most records, active means well fitted inhibition curve with a large enough effect; inconclusive means small, poorly fitted or top-dose-only effect, or effect the other way; inactive means no such curve, though single readings can be large or run the other way. The set was probably picked from earlier hits. This is one part of the list.
Entry note: the call must match one of YES (active), NO (inactive)

Previously resolved entries follow.
compound: CCCCSc1nnc(-c2cc3c(C(F)(F)F)nn(C)c3s2)n1C
label class: YES
--
compound: COCCNC(=O)/C(C#N)=C/C=C/c1ccccc1[N+](=O)[O-]
label class: YES

Recorded call for C=CCNC(=O)c1onc(CSc2cccc3ccccc23)c1C(=O)O ?
NO

Same for COc1ccc([N+](=O)[O-])c(S(=O)(=O)c2ccccc2)n1
NO

Same for N#C/C(=C\C=C\c1ccccc1[N+](=O)[O-])C(=O)NC1CCCCC1
YES

Same for C/C1=C\CCC2C(/C=C(\C)CC1)OC(=O)C2CN1CCCCC1 (stereo unspecified)
YES

* * *

experiment: Confirmation screen for delayed death inhibitors of the malarial parasite plastid, 48 hour incubation; also: nearly all actives have a fitted effect of over 65% in size; details: P. falciparum-infected erythrocytes, luciferase growth; series mostly up to 28.7 µM
Out of some 2,300 compounds screened, about 1,200 (52%) were called active. Another 34% or so got no clear call; they are omitted. The call rests on the fitted dose curve; in most records, active means well fitted inhibition curve with a large enough effect; inconclusive means small, poorly fitted or top-dose-only effect, or effect the other way; inactive means no such curve, though single readings can be large or run the other way. So high a share suggests a set chosen from earlier hits. The list shows a part of the results.
Entry note: the call must match one of active, inactive

compound: CC(=O)c1ccc(N/N=C(/C(N)=O)C2=NC(C)(C)Cc3ccccc32)cc1
label class: active
//
compound: CCc1nn2c(=O)cc(COc3ccc(NC(=O)c4ccco4)cc3)nc2s1
label class: inactive
//
compound: C/C(=C\C(=O)c1ccncc1)Nc1ccccc1O
label class: active
//
compound: CC(C)C[C@H](NC(=O)c1[nH]cnc1C(=O)Nc1ccc(CNC(=O)OC(C)(C)C)cc1)C(=O)OC(C)(C)C
label class: active
//
compound: CCCC(=O)N1CCN(c2ccc(NC(=O)c3ccc([N+](=O)[O-])o3)cc2Cl)CC1
label class: active

Recorded call for CCN1CCN(c2ccc(NC(=O)c3ccc([N+](=O)[O-])o3)cc2Cl)CC1 ?
active

Same for Cc1cccc(N/N=C(\C(N)=O)C2=NC(C)(C)Cc3ccccc32)c1
active

Same for CC(C)C(=O)N1CCN(c2ccc(NC(=O)c3ccco3)cc2Cl)CC1
active

Same for OC1C2(Cc3ccccc3)CN3CCN(C2)CC1(Cc1ccccc1)C3 (stereo not given)
active

Same for CCC(=O)N1CCN(c2ccc(NC(=O)c3ccc([N+](=O)[O-])o3)cc2Cl)CC1
active

* * *

assay: Confirmation screen for delayed death inhibitors of the malarial parasite plastid, 48 hour incubation; also: nearly all actives have a fitted effect of over 65% in size; also: potency is read from the fitted curve at half-maximal effect; conditions: P. falciparum-infected erythrocytes, luciferase growth; series mostly up to 28.7 µM
The campaign covered roughly 2,300 compounds. About 1,200 (52%) were called active. Roughly 34% stayed inconclusive and do not appear here. The set was probably picked from earlier hits. The list shows a part of the results.
test readout: Potency

// solved cases for Potency follow
molecule: COc1ccccc1-n1nnnc1S(=O)(=O)Cc1ccc(Cl)cc1
result: 12.6 µM (active)
--
molecule: CC1(C)CC(=O)C2=C(C1)OC1=C(C(=O)CC(C)(C)C1)C2c1ccc(O)cc1O
result: 7.08 µM (active)
--
molecule: CCC(C)NC(=O)c1cc(Cl)c(NC(=O)C2=C(C)OCCS2)cc1OC (stereo not given)
result: 11.2 µM (active)
--
molecule: NC(=O)C1CCN(c2nc(C3CC3)nc3c2nnn3Cc2ccccc2Cl)CC1
result: 4.47 µM (active)

--- query ---
Potency lookup needed for Cc1c(C(=O)N2CCN(c3ccc([N+](=O)[O-])cc3)CC2)sc2ncn(CC(=O)N3CCOCC3)c(=O)c12 , thanks.
12.6 µM (active)
